# assay-system: RNF31 PUB domain (Homo sapiens, UniProt Q96EP0)
# Construct: MBP-TEV (N, cleaved yes); made in house; host or cells: E. coli BL21 (DE3) pLysS
# Sequence (Q96EP0 1-179): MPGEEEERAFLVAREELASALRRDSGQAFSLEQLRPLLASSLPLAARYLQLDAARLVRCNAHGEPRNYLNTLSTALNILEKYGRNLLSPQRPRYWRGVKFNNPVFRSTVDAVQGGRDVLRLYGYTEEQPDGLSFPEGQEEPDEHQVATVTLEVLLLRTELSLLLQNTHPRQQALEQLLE
# measurement-notes: Phage Library Screening with NGS, RNF31 PUB domain
# Type: binding
# run-conditions: RNF31 PUB domain clusters C41-C45; target concentration 100
Bridge positions count the residues as written; N and C are the ends. Ends that are not written are not given here.
property: Phage library screen NGS readout, Target Concentration 100
// response body must contain only the number

Fill in: Phage library screen NGS readout, Target Concentration 100 of `DPAIWECVSAAAVCMTY` is ___
0

Next record, please: `DPAFTDCQLAAAVCMTY`
3

Next record, please: `DPAWNDCLYAAETCISW`
1

Next record, please: `DPAQEECFEAAVFCSYY`
2

Next record, please: `DPATEACFDAAIECTYY`
0

Next record, please: `DPAWESCMYAAYDCDNE`
0

Next record, please: `DPAYDYCLYAAQDCVWW`
0

Next record, please: `DPAQDWCMYAAYECDAH`
0

Next record, please: `DPAYYTCDWAAIYCDYH`
0

Next record, please: `DPAMQECMDAAIMCTYA`
0

Next record, please: `DPALSHCTVAAMVCSTY`
1

Next record, please: `DPAIYQCSLAADICSTY`
3

Next record, please: `DPAAWECHIAAFVCSTY`
0

Next record, please: `DPAADDCEWAALYCSFH`
0

Next record, please: `DPAEDECQDAAILCSYN`
0

Next record, please: `DPAWEHCLYAAYDCTHE`
0

Next record, please: `DPAEDECDWAALYCDMQ`
0

Next record, please: `DPAWLDCIYAAYDCVTD`
1

Next record, please: `DPAHANCQLAADVCSTY`
0

Next record, please: `DPAQDQCISAAVLCTYT`
0

Next record, please: `DPAWQECVIAALVCDTY`
0

Next record, please: `DPAYDLCLNAAVACTYV`
2

Next record, please: `DPAYSSCSWAAIYCNWT`
5

Next record, please: `DPAQYQCDIAAQVCSTY`
0

Next record, please: `DPALVTCTWAAIYCDDF`
2

Next record, please: `DPAFMDCVFAAAVCATY`
0

Next record, please: `DPAYDWCLYAAEYCHTD`
0

Next record, please: `DPAIDACYDAAVMCTYV`
0

Next record, please: DPAIVQCAWAALYCDMQ (Ac-DPAIVQCAWAALYCDMQ-NH2; bridge 7-14; also: Cys-Cys staple, linker not named)
0

Next record, please: `DPAWTQCDWAALYCEDQ`
0

Next record, please: `DPAQMECIDAAIMCSYT`
0

Next record, please: `DPAYDWCLYAAYQCDQN`
0

Next record, please: `DPAADQCDIAAFVCSTY`
0

Next record, please: DPALWDCLYAADACITS (not fully specified; cysteine pairing not given here)
0

Next record, please: `DPAWTDCDWAALYCDES`
0

Next record, please: `DPALRDCLDAAIMCTYT`
0

Next record, please: `DPAHTWCMYAAFDCFES`
0

Next record, please: `DPAWMQCMYAAWDCNIE`
0

Next record, please: `DPAYRDCDWAALYCDDF`
1

Next record, please: `DPAFWACLYAAEECVVD`
0

Next record, please: `DPAQYQCWNAAMSCSYS`
3

Next record, please: `DPAWWNCLYAAYECNHA`
0

Next record, please: `DPANFTCRVAADVCSTY`
3
